assay_details: in vitro
assay_context: pig, CC50 (50% cytotoxic concentration)
value_type: CC50 (µM)
Respond numerically; units are µM and should not be typed.

If you can, please state the reported CC50 value of Nc1ccn(C[C@H]2COP(=O)(O)CO2)c(=O)n1 .
47

* * *

System: ASFV Georgia 2007/1
assay_details: microbe, parasite or virus in culture
Type: cell-based
assay_context: African swine fever virus, PBMC, 72 h, read-out: EC50 Georgia 2007/1
value_type: EC50 (nM)
Just the number in nM, nothing appended.

Please look up its EC50: Nc1ccn(C[C@H]2COP(=O)(O)CO2)c(=O)n1
310

* * *

assay_details: in vivo
assay_context: pig, iv, 5 mg/kg, AUC, analyte VV03-0035
value_type: AUC

I would be grateful if you could share the reported AUC for Nc1ccn(C[C@H]2COP(=O)(O)CO2)c(=O)n1 [cHPMPC, cyclic cidofovir] .
71.6 µM·h

* * *

Tested on: recombinant ASFV genotype II Georgia virus, GeorgiaDMGFB
Format: cell-based, African swine fever virus
value_type: efficacy compared to cHPMPC

CC(C)OC(=O)OCOP1(=O)CO[C@@H](Cn2ccc(N)nc2=O)CO1 (some centres unmarked)	intermediate
CC(C)OC(=O)[C@H](C)NP1(=O)CO[C@@H](Cn2ccc(N)nc2=O)CO1 (some centres unmarked)	intermediate
CC(C)(C)C(=O)OCOP1(=O)CO[C@@H](Cn2ccc(N)nc2=O)CO1 (some centres unmarked)	intermediate

* * *

assay_details: in vivo
assay_context: pig, iv, 5 mg/kg, exposure (AUC) of VV03-0035, range across pigs
value_type: AUC

Would you mind telling me what AUC value was observed for Nc1ccn(C[C@H]2COP(=O)(O)CO2)c(=O)n1 ?
58 to 95.4 µM·h

Taken from patent US20250205257A1.
